Parameter relative % inhibition: see the listing below.
Tested on: P. falciparum NF54-pfs16-GFP early (I-III) stage gametocytes
Experiment: relative % inhibition of viable gametocyte number; higher = more gametocytocidal
Details: 5 µM; stage: early (I-III) gametocyte; incubation 72 h
// note: answer is a bare numeric in %

Past entries and their recorded results:
[[record]]
molecule = "CCOc1ccccc1CN1CCc2nc3cc(C(C)(C)C)nn3c(O)c2C1"
subject_of_test = "P. falciparum NF54-pfs16-GFP early (I-III) stage gametocytes"
recorded_endpoint = "relative % inhibition"
observed = -4.88

[[record]]
molecule = "COc1ccccc1CNC(=O)C1c2ccccc2C(=O)N(CC(C)C)C1c1cccs1 (stereo not given)"
subject_of_test = "P. falciparum NF54-pfs16-GFP early (I-III) stage gametocytes"
recorded_endpoint = "relative % inhibition"
observed = 31.9

[[record]]
molecule = "COc1cc2c3cc1Oc1c(OC)c(OC)cc4c1C(Cc1ccc(O)c(c1)Oc1ccc(cc1)CC3N(C)CC2)N(C)CC4 (stereo not given)"
subject_of_test = "P. falciparum NF54-pfs16-GFP early (I-III) stage gametocytes"
recorded_endpoint = "relative % inhibition"
observed = 73.4

[[record]]
molecule = "c1ccc(-c2ccc(-c3nc4ccccc4[nH]3)cc2)cc1"
subject_of_test = "P. falciparum NF54-pfs16-GFP early (I-III) stage gametocytes"
recorded_endpoint = "relative % inhibition"
observed = -6.39

[[record]]
molecule = "COc1cccc(C=Cc2nc(=O)c3ccccc3o2)c1OC"
subject_of_test = "P. falciparum NF54-pfs16-GFP early (I-III) stage gametocytes"
recorded_endpoint = "relative % inhibition"
observed = -17.9

[[record]]
molecule = "COc1cc(SC)ccc1C(=O)N1CCCC(C)C1 (stereo not given)"
subject_of_test = "P. falciparum NF54-pfs16-GFP early (I-III) stage gametocytes"
recorded_endpoint = "relative % inhibition"
observed = -6.96

[[record]]
molecule = "COc1cc(C(=O)Nc2nc3c(cc4c5c(cccc53)CC4)s2)cc(OC)c1OC"
subject_of_test = "P. falciparum NF54-pfs16-GFP early (I-III) stage gametocytes"
recorded_endpoint = "relative % inhibition"
observed = 13.9

[[record]]
molecule = "CCC(O)c1ccc(Br)cc1NC(=O)c1cccc(Cl)c1 (stereo not given)"
subject_of_test = "P. falciparum NF54-pfs16-GFP early (I-III) stage gametocytes"
recorded_endpoint = "relative % inhibition"
observed = 93.3

[[record]]
molecule = "O=C(Nc1ccc(C23CC4CC(CC(c5ccccc5)(C4)C2)C3)cc1)c1cccs1"
subject_of_test = "P. falciparum NF54-pfs16-GFP early (I-III) stage gametocytes"
recorded_endpoint = "relative % inhibition"
observed = 12.3


// next entry
Using known records, supply relative % inhibition for CCOC(=O)c1cnc2ccc(Cl)cc2c1NCCCN(C)C 74.3

* * *

Tested on: P. falciparum NF54-pfs16-GFP early (I-III) stage gametocytes
Test: relative % inhibition of viable gametocyte number; higher = more gametocytocidal
Details: 5 µM; stage: early (I-III) gametocyte; incubation 72 h
Where relative % inhibition equals or exceeds 80%, the correct label is Criterion met; where it does not, the label is Criterion not met.

Illustrative cases are given below, each with its answer.
[[record]]
compound = "Cc1cc(N2CCN(C3CCCC3)CC2)n2c(nc3ccccc32)c1C#N"
category_label = "Criterion not met"

[[record]]
compound = "N=c1n(CCN2CCCCC2)c2ccccc2n1CC(O)c1cccc(Br)c1 (stereo unspecified)"
category_label = "Criterion met"

[[record]]
compound = "CN(C)c1ccc(C(O)(c2ccc(N(C)C)cc2)c2ccc(N(C)C)cc2)cc1"
category_label = "Criterion not met"

[[record]]
compound = "CCOc1ccc(Nc2c3ccccc3nc3ccccc23)cc1"
category_label = "Criterion met"

[[record]]
compound = "Cc1ccc(Cn2c(N3CCC(C(=O)NCc4cccs4)CC3)nc3ccccc32)cc1"
category_label = "Criterion not met"


Hi, just wondering whether Cc1cc(N2CCCC2)nc(Nc2ccc(NC(=O)CCc3ccccc3)cc2)n1 shows relative % inhibition of 80% or higher. Criterion met

Hi, just wondering whether Oc1c(C(Nc2ccccn2)c2cccc(Oc3ccccc3)c2)ccc2cccnc12 (stereo unspecified) shows relative % inhibition of 80% or higher. Criterion met

Hi, just wondering whether COc1ccc2c(c1)C1(Nc3ccccc3-c3nc4ccccc4n31)C(=O)N2 (stereo unspecified) shows relative % inhibition of 80% or higher. Criterion met

Hi, just wondering whether OC(CNCc1ccccc1)Cn1c2ccccc2c2ccccc21 (stereo unspecified) shows relative % inhibition of 80% or higher. Criterion met

* * *

Parameter relative % inhibition: see the listing below.
Tested on: P. falciparum NF54-pfs16-GFP early (I-III) stage gametocytes
Test: relative % inhibition of viable gametocyte number; higher = more gametocytocidal
Details: 0.5 µM; stage: early (I-III) gametocyte; incubation 72 h
// note: answer is a bare numeric in %

Past entries and their recorded results:
[[record]]
molecule = "CCOC(=O)c1cnc2ccc(CC)cc2c1O"
unit = "%"
observed = -8.43

[[record]]
molecule = "COc1ccc(N2CCN(C(CNC(=O)C3CCCCC3)c3ccc4c(c3)OCO4)CC2)cc1 (stereo not given)"
unit = "%"
observed = 22.8


Using known records, supply relative % inhibition for Oc1c2c(nc3cc(-c4ccccc4)nn13)CCCC2 3.76

Using known records, supply relative % inhibition for Cc1cc(C)c2c(c1)OCN(Cc1ccccc1Cl)C2 59.9

Using known records, supply relative % inhibition for COc1cc2c(cc1OC)C1=NNC(=O)C1=NC(C)(C)C2 71.5

Using known records, supply relative % inhibition for COc1cc(OC)cc(N2C(=O)N(Cc3ccc(C(C)(C)C)cc3)c3ccccc3S2(=O)=O)c1 10

Using known records, supply relative % inhibition for Cc1cc(Nc2ccc(Cl)cc2)n2nc(C(F)(F)F)nc2n1 4.02

Using known records, supply relative % inhibition for OC(CNCC1CCCO1)Cn1c2ccc(Cl)cc2c2cc(Cl)ccc21 (stereo not given) 16.5

Using known records, supply relative % inhibition for COCCNC(=O)c1ccc(OC2CCN(Cc3ccc(F)c(F)c3)CC2)c(Cl)c1 7.61

Using known records, supply relative % inhibition for CCN(CC)CCNc1ncnc2c1[nH]c1ccc(Br)cc12 -15.3

Using known records, supply relative % inhibition for CCOc1ccc(Nc2c3ccccc3nc3ccccc23)cc1 -20.8

Using known records, supply relative % inhibition for CCc1ccc(CNCC(O)c2ccccc2)cc1 (stereo not given) 9.08

Using known records, supply relative % inhibition for COCCNCC(O)Cn1c2ccc(Cl)cc2c2cc(Cl)ccc21 (stereo not given) 5.62

Using known records, supply relative % inhibition for CCCCC(O)(c1ccc(Cl)cc1)C(CN1CCOCC1)c1ccc(Cl)cc1 (stereo not given) 10.8

Using known records, supply relative % inhibition for CCN(CC)CCCNc1ccnc2cc3ccccc3cc12 11

Using known records, supply relative % inhibition for COc1ccc(CCN2CCC(CN(C)Cc3cnn(-c4ccccc4)c3)CC2)cc1 4.18

Using known records, supply relative % inhibition for CCCCCCc1cc2cc(-c3nc4ccccc4[nH]3)c(=Nc3ccccc3C)oc2cc1O 60.1

Using known records, supply relative % inhibition for CC1(c2ccccc2)Nc2ccccc2-c2nc3ccccc3n21 (stereo not given) 1.27

Using known records, supply relative % inhibition for CCN(CC)CCNc1ccnc2cc(Cl)ccc12 -1.61

Using known records, supply relative % inhibition for CN(C)c1ccc(C=Cc2nc(=O)c3ccccc3o2)cc1 -10.1

Using known records, supply relative % inhibition for O=C(Nc1nc(-c2ccccn2)cs1)c1ccccc1Br 10.8

Using known records, supply relative % inhibition for COc1cccc(C(=O)NC(c2ccc(C)cc2)c2cc(Cl)c3cccnc3c2O)c1 (stereo not given) 12.4

Using known records, supply relative % inhibition for CCCN(CCC)CC(O)COc1ccccc1C(=O)Nc1ccccc1 (stereo not given) 22.5

Using known records, supply relative % inhibition for CCCCCCc1cc2cc(-c3csc(C=Cc4ccccc4)n3)c(=O)oc2cc1O 18.9

Using known records, supply relative % inhibition for CCN(CC)CCNc1ncnc2c1[nH]c1ccc(Cl)cc12 14.5

Using known records, supply relative % inhibition for OC(CNC1CCCC1)Cn1c2ccccc2c2ccccc21 (stereo not given) 15.6

Using known records, supply relative % inhibition for COc1ccc(-n2ccnc2SCC(=O)Nc2cc(C)ccc2C)c(OC)c1 3.61

Using known records, supply relative % inhibition for CCC(O)c1ccc(Br)cc1NC(=O)c1cccc(Cl)c1 (stereo not given) 3.28

Using known records, supply relative % inhibition for COc1ccc2c(c1)OC(O)(C(F)(F)C(F)(F)F)CC2=O (stereo not given) -12.9

Using known records, supply relative % inhibition for Cc1ccc(-c2cc(C(=O)Nc3ccc(S(=O)(=O)N4CCCCC4)cc3)[nH]n2)c(O)c1 18

* * *

Test system: P. falciparum NF54-pfs16-GFP late (IV-V) stage gametocytes
Experiment: relative % inhibition of viable gametocyte number; higher = more gametocytocidal
Conditions: 0.5 µM; stage: late (IV-V) gametocyte; incubation 72 h
Where relative % inhibition equals or exceeds 20%, the correct label is t; where it does not, the label is f.

Illustrative cases are given below, each with its answer.
[[record]]
compound = "Cc1sc(NC(=O)c2ccco2)c(C(c2cccnc2)N2CCC(Cc3ccccc3)CC2)c1C (stereo not drawn)"
subject_of_test = "P. falciparum NF54-pfs16-GFP late (IV-V) stage gametocytes"
category_label = "f"

[[record]]
compound = "CCOc1ccc(C=Cc2nc(=O)c3ccccc3o2)cc1"
subject_of_test = "P. falciparum NF54-pfs16-GFP late (IV-V) stage gametocytes"
category_label = "t"

[[record]]
compound = "Oc1ccccc1CN1CCN(C(c2ccccc2)c2ccccc2)CC1"
subject_of_test = "P. falciparum NF54-pfs16-GFP late (IV-V) stage gametocytes"
category_label = "t"


Hi, just wondering whether CCOc1ccc(N2C(N)=NC(N)=NC2(C)C)cc1 shows relative % inhibition of 20% or higher. f

Hi, just wondering whether Nc1nc(Nc2cccc(F)c2)nc2ccccc12 shows relative % inhibition of 20% or higher. f

Hi, just wondering whether COc1cccc(O)c1CN1CCC2(CCCN(Cc3ccc(F)cc3)C2)C1 (stereo not drawn) shows relative % inhibition of 20% or higher. f

Hi, just wondering whether Cc1[nH]c(-c2ccc(F)cc2)cc1C(=O)NC1CCN(Cc2ccccc2)CC1 shows relative % inhibition of 20% or higher. f

Hi, just wondering whether Oc1ccc(Cl)cc1CNc1nc2ccccc2[nH]1 shows relative % inhibition of 20% or higher. f

Hi, just wondering whether CCOC(=O)c1ccc2nc(-c3ccccc3)cc(O)c2c1 shows relative % inhibition of 20% or higher. t

Hi, just wondering whether COc1nc(Nc2ccc(C(C)C)cc2)nc(OC)n1 shows relative % inhibition of 20% or higher. f

Hi, just wondering whether O=C(Nc1ccc(Br)cc1)Nc1cccc(Cl)c1 shows relative % inhibition of 20% or higher. f
